Where do these numbers come from? They come from patent US7803795B2.

STUDY_TARGET: PARP-1 enzyme (Homo sapiens)
Construct: made in house
Sequence (P09874 whole entry): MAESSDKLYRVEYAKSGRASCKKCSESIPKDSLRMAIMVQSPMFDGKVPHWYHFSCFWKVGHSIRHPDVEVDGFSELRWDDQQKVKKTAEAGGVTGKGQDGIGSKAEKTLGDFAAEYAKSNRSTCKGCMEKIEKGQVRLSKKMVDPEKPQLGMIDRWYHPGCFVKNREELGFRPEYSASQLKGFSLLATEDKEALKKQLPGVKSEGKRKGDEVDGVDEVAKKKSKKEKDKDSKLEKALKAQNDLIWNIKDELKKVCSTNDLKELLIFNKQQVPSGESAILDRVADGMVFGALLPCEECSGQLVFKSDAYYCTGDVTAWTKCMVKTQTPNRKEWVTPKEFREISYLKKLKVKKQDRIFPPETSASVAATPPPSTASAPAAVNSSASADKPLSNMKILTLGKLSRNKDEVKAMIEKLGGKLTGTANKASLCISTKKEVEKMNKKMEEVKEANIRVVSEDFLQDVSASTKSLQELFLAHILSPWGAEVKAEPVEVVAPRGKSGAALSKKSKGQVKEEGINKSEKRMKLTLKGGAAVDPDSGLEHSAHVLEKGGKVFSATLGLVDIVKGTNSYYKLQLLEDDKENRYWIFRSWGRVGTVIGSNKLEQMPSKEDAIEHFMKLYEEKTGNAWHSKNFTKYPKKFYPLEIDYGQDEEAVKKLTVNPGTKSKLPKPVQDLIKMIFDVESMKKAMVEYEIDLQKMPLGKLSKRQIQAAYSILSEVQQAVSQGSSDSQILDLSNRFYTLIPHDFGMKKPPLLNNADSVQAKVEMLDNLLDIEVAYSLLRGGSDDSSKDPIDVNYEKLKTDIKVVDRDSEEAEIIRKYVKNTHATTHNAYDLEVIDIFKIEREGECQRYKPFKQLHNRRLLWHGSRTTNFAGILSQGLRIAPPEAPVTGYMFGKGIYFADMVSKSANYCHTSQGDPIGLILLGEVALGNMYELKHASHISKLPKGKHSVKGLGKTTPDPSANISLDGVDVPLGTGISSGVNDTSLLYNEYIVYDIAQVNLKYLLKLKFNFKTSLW
EXPERIMENT_NOTES: in vitro filtration assay for PARP-1 inhibitory activity
Assay type: biochemical
RUN_PARAMETERS: [32P]-NAD, histones, nicked DNA; dose-response 10^-5 M to 10^-8 M; read-out: in vitro filter assay PARP-1 pIC50 (converted)
READOUT_NAME: IC50

Task item: Fill in: IC50 of O=c1[nH]nc(NC2CCNCC2)c2ccccc12 is ___
Reply: 37.7 nM

Task item: Continue with Cc1nnc(N2CCN(CCCC(c3ccc(F)cc3)c3ccc(F)cc3)CC2)c2ccccc12
Reply: 302 nM

Task item: Continue with O=c1[nH]nc(NCCC2CCNCC2)c2ccccc12
Reply: 61.8 nM

Task item: Continue with CCOC(=O)N1CCC(CCNc2n[nH]c(=O)c3ccccc23)CC1
Reply: 56.8 nM

Task item: Continue with O=c1[nH]nc(NCC2CCNCC2)c2ccccc12
Reply: 83.8 nM

Task item: Continue with O=c1[nH]nc(NC2CCN(CCCCOc3ccccc3)CC2)c2ccccc12
Reply: 134 nM

Task item: Continue with Clc1nnc(NC2CCN(Cc3ccccc3)C2)c2ccccc12 (stereo not drawn)
Reply: 188 nM

Task item: Continue with CCOC(=O)N1CCC(c2n[nH]c(=O)c3ccccc23)CC1
Reply: 240 nM

Task item: Continue with O=c1[nH]nc(C2CCN(CCCOc3ccc(F)cc3)CC2)c2ccccc12
Reply: 19.1 nM
